# Test system: PPARg:RXRa DBDmut IVT, anti-RXR (DBD mutation: RXRa K156A/R161A, NR concentration 270 nM, RXRa partner concentration 90 nM)
# TEST SUMMARY: PBM binding z-score (relative to random genomic background probes); higher = stronger binding; sequences stand for … in GC…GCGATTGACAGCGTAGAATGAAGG
# label = bin(measured PBM binding z-score), where bins are c1 (below 1), c2 (1 to below 3), c3 (3 or more)

[[record]]
chain_sequence = "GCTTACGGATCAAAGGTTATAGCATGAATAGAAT"
classification = "c1"

[[record]]
chain_sequence = "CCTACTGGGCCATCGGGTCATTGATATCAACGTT"
classification = "c3"

[[record]]
chain_sequence = "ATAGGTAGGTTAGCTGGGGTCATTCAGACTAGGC"
classification = "c2"

[[record]]
chain_sequence = "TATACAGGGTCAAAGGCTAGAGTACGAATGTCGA"
classification = "c2"


# input Form: Item = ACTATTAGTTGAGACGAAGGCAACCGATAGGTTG ; Class = ?
# output c1

# input Form: Item = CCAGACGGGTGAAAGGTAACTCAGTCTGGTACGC ; Class = ?
# output c1

# input Form: Item = CCTACTGGGCCACGGAAGGTCATTGATTCAGTGA ; Class = ?
# output c3

# input Form: Item = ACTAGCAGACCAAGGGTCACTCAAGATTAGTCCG ; Class = ?
# output c1

# input Form: Item = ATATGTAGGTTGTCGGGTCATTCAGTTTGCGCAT ; Class = ?
# output c3

---

# Test system: PPARg:RXRa IVT, anti-PPARg (NR concentration 270 nM, RXRa partner concentration 90 nM)
# TEST SUMMARY: PBM binding z-score (relative to random genomic background probes); higher = stronger binding; sequences stand for … in GC…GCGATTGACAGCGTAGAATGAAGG
# label = bin(measured PBM binding z-score), where bins are LOW = under 1, MID = from 1 up to 3, HIGH = 3 and over

A selection of reference data follows.
[[record]]
chain_sequence = "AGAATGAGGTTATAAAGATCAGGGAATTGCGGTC"
classification = "MID"

[[record]]
chain_sequence = "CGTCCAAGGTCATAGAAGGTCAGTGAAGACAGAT"
classification = "HIGH"

[[record]]
chain_sequence = "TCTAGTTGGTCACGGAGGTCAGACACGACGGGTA"
classification = "HIGH"

[[record]]
chain_sequence = "GCTTGTAGATCAAGGGTAAGAAAGACTAAGCTAA"
classification = "MID"

[[record]]
chain_sequence = "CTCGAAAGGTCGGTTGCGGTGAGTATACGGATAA"
classification = "LOW"


# input Form: Item = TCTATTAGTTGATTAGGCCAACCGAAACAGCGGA ; Class = ?
# output LOW

# input Form: Item = CGTCCAAGGTCAATGCTAGGACAGTGAAAGCATT ; Class = ?
# output HIGH

# input Form: Item = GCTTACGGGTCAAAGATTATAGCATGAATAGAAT ; Class = ?
# output HIGH

---

# System: LXRa homodimer (NR concentration 270 nM)
# TEST SUMMARY: PBM binding z-score (relative to random genomic background probes); higher = stronger binding; sequences stand for … in GC…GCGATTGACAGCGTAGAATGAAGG
# label = label 1 if PBM binding z-score >= 0.09 else label 0

A selection of reference data follows.
[[record]]
chain_sequence = "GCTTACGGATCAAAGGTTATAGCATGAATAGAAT"
classification = "label 1"

[[record]]
chain_sequence = "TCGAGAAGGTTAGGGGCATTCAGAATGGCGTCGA"
classification = "label 0"

[[record]]
chain_sequence = "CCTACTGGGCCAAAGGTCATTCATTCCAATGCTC"
classification = "label 1"

[[record]]
chain_sequence = "TCGAGTAGGTTATCAATGGGGCATTCAGCTTTCT"
classification = "label 0"

[[record]]
chain_sequence = "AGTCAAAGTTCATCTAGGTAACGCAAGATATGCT"
classification = "label 1"

[[record]]
chain_sequence = "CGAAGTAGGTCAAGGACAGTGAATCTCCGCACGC"
classification = "label 1"

[[record]]
chain_sequence = "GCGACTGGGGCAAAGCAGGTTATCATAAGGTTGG"
classification = "label 0"


For the next question, use this sequence.
# input Is it the case that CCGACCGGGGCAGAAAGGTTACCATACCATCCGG has PBM binding z-score reaching or exceeding 0.09?
# output label 0
